Provenance of the data: patent US8822449B2

Molecular target: sodium-proton exchanger of subtype 3 (NHE3) (Homo sapiens, UniProt P48764)
Construct: expressed in transfected cells
Sequence (P48764 26-834, species assumed): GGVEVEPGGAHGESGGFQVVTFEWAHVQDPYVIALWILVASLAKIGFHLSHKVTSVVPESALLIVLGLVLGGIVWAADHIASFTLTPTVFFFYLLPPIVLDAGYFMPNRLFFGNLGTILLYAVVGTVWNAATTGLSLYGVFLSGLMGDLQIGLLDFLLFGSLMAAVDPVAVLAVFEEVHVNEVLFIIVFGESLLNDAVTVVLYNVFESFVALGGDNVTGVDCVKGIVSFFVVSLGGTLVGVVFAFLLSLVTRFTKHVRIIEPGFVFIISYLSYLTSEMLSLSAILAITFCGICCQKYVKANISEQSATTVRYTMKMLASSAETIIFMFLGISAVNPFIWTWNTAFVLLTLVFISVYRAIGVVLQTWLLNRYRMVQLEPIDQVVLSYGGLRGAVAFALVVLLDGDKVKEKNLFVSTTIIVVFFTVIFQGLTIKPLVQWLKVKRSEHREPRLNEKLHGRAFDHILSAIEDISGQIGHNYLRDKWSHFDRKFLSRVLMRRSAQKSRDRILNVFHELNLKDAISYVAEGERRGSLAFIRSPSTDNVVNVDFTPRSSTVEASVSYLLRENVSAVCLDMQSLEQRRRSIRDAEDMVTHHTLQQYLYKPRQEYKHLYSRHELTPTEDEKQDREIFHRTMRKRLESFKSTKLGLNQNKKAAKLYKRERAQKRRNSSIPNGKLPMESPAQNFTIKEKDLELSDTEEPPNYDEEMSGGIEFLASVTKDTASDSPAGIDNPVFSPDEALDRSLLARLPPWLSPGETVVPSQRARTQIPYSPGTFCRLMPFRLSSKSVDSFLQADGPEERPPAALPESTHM
Assay: Recovery of intracellular pH (pHi) after acidification in LAP1 cells stably expressing NHE3 (BCECF fluorescence, FLIPR)
Assay type: cell-based
Conditions: LAP1 cells stably expressing NHE3; pH recovery after acidification; range 1 is % inhibition at 10 μM; read-out: Activity range (inhibitory effect on NHE3)
pIC50: −log10 of the molar value.
readoutType: pIC50

Q) Find the measured pIC50: item Cc1nnc(C)n1-c1ccc(O[C@H]2c3cc(Cl)cc(Cl)c3C[C@@H]2N2CC[C@@H](O)C2)cc1 , target or system sodium-proton exchanger of subtype 3 (NHE3) (Homo sapiens, UniProt P48764).
A) > 6.00

Q) What do you have for NS(=O)(=O)c1ccc(O[C@@H]2c3ccccc3C[C@H]2NC2CCCC2)c(F)c1 (racemic) ?
A) > 6.00

Q) What do you have for c1cc(O[C@@H]2c3ccccc3C[C@H]2N2C[C@H]3CNC[C@H]3C2)cc(N2CCCCC2)c1 (racemic) ?
A) 5.00 to 6.00

Q) What do you have for CS(=O)(=O)c1ccc(O[C@H]2c3cc(Cl)cc(Cl)c3C[C@@H]2N2CC[C@@H](N3CCCC3)C2)cc1 ?
A) > 6.00

Q) What do you have for Nc1ccc2c(O[C@H]3c4ccccc4CC[C@@H]3N3CCC[C@@H](N)C3)cccc2c1 (racemic) ?
A) 5.00 to 6.00

Q) What do you have for CC(=O)Nc1cccc(O[C@H]2c3ccccc3C[C@@H]2N2CCCC2)n1 (racemic) ?
A) > 6.00

Q) What do you have for CC(=O)Nc1cccc(O[C@H]2c3cc(Cl)ccc3C[C@@H]2N2CCCC2)c1 (racemic) ?
A) > 6.00

Q) What do you have for CCN(CC)[C@@H]1Cc2ccccc2[C@H]1Oc1ccc2sc(C)nc2c1 (racemic) ?
A) 5.00 to 6.00

Q) What do you have for NC(=O)c1ccccc1O[C@H]1c2ccccc2CC[C@@H]1N1CCC[C@@H](N)C1 (racemic) ?
A) 5.00 to 6.00

Q) What do you have for NS(=O)(=O)c1ccc(O[C@H]2c3cc(Cl)cc(Cl)c3C[C@@H]2NC2CCCC2)c(F)c1 ?
A) 5.00 to 6.00

Q) What do you have for c1cc(O[C@@H]2c3ccccc3C[C@H]2N2C[C@H]3CNC[C@H]3C2)cc(N2CCNCC2)c1 (racemic) ?
A) 5.00 to 6.00

Q) What do you have for CN(C)[C@@H]1CCCN([C@H]2Cc3c(Cl)cc(Cl)cc3[C@@H]2Oc2ccc(S(C)(=O)=O)cc2)C1 ?
A) > 6.00

Q) What do you have for Cn1ccn(-c2ccc(F)c(O[C@H]3c4cc(Cl)cc(Cl)c4C[C@@H]3N3CC[C@@H](O)C3)c2)c1=O ?
A) > 6.00

Q) What do you have for CS(=O)(=O)c1ccc(O[C@H]2c3cc(Cl)cc(Cl)c3C[C@@H]2N2CC[C@@H](F)C2)cc1 ?
A) > 6.00

Q) What do you have for CC(=O)Nc1cccc(O[C@@H]2c3ccccc3C[C@H]2N2CCC[C@@H](N)C2)c1 (racemic) ?
A) > 6.00

Q) What do you have for O=C1CCCN1c1ccc(O[C@H]2c3cc(Cl)cc(Cl)c3C[C@@H]2N2CC[C@@H](O)C2)cc1 ?
A) > 6.00

Q) What do you have for COc1cccc(F)c1O[C@@H]1c2ccccc2C[C@H]1N1CCC(N)C1 (mixture of isomers) ?
A) 5.00 to 6.00

Q) What do you have for CC(=O)Nc1cccc(OC2c3ccccc3CC2N(C)C)c1 (racemic) ?
A) 5.00 to 6.00

Q) What do you have for N#Cc1ccc(O[C@@H]2c3ccccc3C[C@H]2N2C[C@H]3CNC[C@H]3C2)cc1F (racemic) ?
A) 5.00 to 6.00

Q) What do you have for NCC1CCN([C@@H]2Cc3ccccc3[C@H]2Oc2ccc(S(N)(=O)=O)c(Cl)c2Cl)CC1 (racemic) ?
A) 5.00 to 6.00

Q) What do you have for NC(=O)c1cccc(O[C@@H]2c3ccccc3C[C@H]2N2CCC[C@@H](N)C2)c1 (racemic) ?
A) > 6.00

Q) What do you have for CCN(CC)[C@@H]1Cc2ccccc2[C@H]1Oc1cccc(NC(C)=O)c1 (racemic) ?
A) 5.00 to 6.00

Q) What do you have for N#Cc1ccc(O[C@@H]2c3ccccc3C[C@H]2N2CCC(CN)C2)cc1Cl (mixture of isomers) ?
A) 5.00 to 6.00

Q) What do you have for CS(=O)(=O)c1ccc(O[C@H]2c3cc(Cl)cc(Cl)c3C[C@@H]2N2CCCNCC2)cc1 [Example 298] ?
A) > 6.00

Q) What do you have for c1ccc2c(c1)C[C@@H](N1C[C@H]3CNC[C@H]3C1)[C@@H]2Oc1ccc(N2CCNCC2)cc1 (racemic) ?
A) 5.00 to 6.00

Q) What do you have for CCCC1(N)CCCN([C@H]2Cc3c(Cl)cc(Cl)cc3[C@@H]2Oc2ccc(S(C)(=O)=O)cc2)C1 (stereo partly drawn) [Example 299] ?
A) > 6.00

Q) What do you have for CS(=O)(=O)c1ccc(O[C@H]2c3ccccc3CC[C@@H]2N2CCC[C@@H](N)C2)cc1 (racemic) ?
A) > 6.00
